Published IC50 for Adenosine receptor A2a (Homo sapiens, UniProt P29274), assembled from different documents, is shown next.
measured.endpoint: IC50

1. CC(=O)Nc1cc2nc(C(F)F)nn2c(-c2ccc(C)o2)n1 : < 0.01 µM
2. C[C@@H](NC(=O)c1nc(-c2ccc3ncccc3c2)c(-c2ccccc2)nc1N)c1cccc(C#N)n1 : 0.064 µM
3. Cc1nc2c(-c3ccc(C)o3)nc(N)c(Cl)n2n1 : < 0.01 µM
4. Cc1nc2cc(NC(=O)N3CC[C@H](O)C3)nc(-c3ccco3)n2n1 : > 1 µM
5. Cc1nc2nc(N[C@@H](C)c3cccnc3)nc(C(=O)N3CC[C@@H](O)C3)c2s1 : > 1 µM
6. Cc1nc2nc(N[C@@H](C)c3cncc(F)c3)nc(C(=O)N3CC(NC(=O)C45CCC(CC4)CC5)C3)c2s1 : < 0.1 µM
7. Cc1ccc(-c2nc(NC(=O)C3CC3)cn3nc(C(C)C)nc23)o1 : < 0.01 µM
8. CNC(=O)Nc1cc2nc(C)nn2c(-c2ccc(F)c(F)c2)n1 : 0.01 to 0.1 µM
